Biological target: Hmlalpha2 (UniProt P0CY09)
Sequence: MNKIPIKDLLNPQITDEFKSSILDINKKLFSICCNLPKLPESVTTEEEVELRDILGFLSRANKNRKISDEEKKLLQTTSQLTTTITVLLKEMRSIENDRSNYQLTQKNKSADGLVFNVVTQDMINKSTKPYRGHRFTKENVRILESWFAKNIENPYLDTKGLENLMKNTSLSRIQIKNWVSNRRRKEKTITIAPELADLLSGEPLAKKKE
Experiment: PBM E-score (8-mer binding enrichment) (E-score (-0.5 to 0.5)); higher = stronger / more preferred TF binding
Details: protein concentration: 200 nM; construct: GST-full length
Over roughly 33,000 sequences, “E-score (-0.5 to 0.5)” has its median near -0.04; the highest 2% begin near 0.36. The sample holds the highest values, similar sequences and a random draw of the others, so the mix is not that of the screen.
Would you mind labelling by PBM E-score? At or over 0.1 is criterion met, under is criterion not met.

Please tell me: is the sequence CAGGCGAA at or over 0.1 in terms of PBM E-score? criterion not met

Quick check, PBM E-score >= 0.1? CCATTCGA criterion not met

Identify whether the reported PBM E-score of the following sequence is 0.1 or greater: GCAGTGTA criterion met

Form field: PBM E-score at least 0.1? Entry: GTGATGTA criterion met

Please tell me: is the sequence TTGTAAAA at or over 0.1 in terms of PBM E-score? criterion met

Quick check, PBM E-score >= 0.1? AGAGATAG criterion not met

# check: PBM E-score of ATGTTGTC is greater than or equal to 0.1 criterion met

Hi, just wondering whether GCCAAACA shows PBM E-score of 0.1 or higher. criterion not met

Is PBM E-score for AATGTAGA at or above 0.1? criterion met

Test whether the sequence ACACCGCG records PBM E-score of 0.1 or higher. criterion met

Decide: is the reported value of PBM E-score for TACTTACA equal to or greater than 0.1? criterion met

Check if PBM E-score >= 0.1 (inclusive). Item: GAATAATA criterion met

Does the reported PBM E-score for ATGTCATA fall at or above the 0.1 mark? criterion met

Decide: is the reported value of PBM E-score for ATGTCATG equal to or greater than 0.1? criterion met

Is the recorded value of PBM E-score equal to or greater than 0.1 for this sequence? GGGATGTA criterion met

----------
Target: Hmlalpha2 (UniProt P0CY09)
Sequence: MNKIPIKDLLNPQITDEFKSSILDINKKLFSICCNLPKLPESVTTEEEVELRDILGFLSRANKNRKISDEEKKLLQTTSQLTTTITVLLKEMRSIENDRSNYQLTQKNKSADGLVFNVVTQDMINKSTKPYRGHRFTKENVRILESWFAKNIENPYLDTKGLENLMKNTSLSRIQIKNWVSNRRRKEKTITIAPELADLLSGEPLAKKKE
Assay: PBM E-score (8-mer binding enrichment) (E-score (-0.5 to 0.5)); higher = stronger / more preferred TF binding
Settings: protein concentration: 200 nM; construct: GST-full length
Whole data set: some 33,000 sequences, median “E-score (-0.5 to 0.5)” near -0.04, cut for the highest 2% near 0.36. What follows is part of a selection rich in the highest values, with near analogues and random picks from the rest.
parameter: PBM E-score
Give the figure by itself; no unit, no explanation.

// worked examples, PBM E-score included
AACATACT : 0.255
TGTTTTAA : 0.382
GGTGTTAA : 0.361

May I ask what PBM E-score has been recorded for AAACATGC ? 0.37

Requested read-out: PBM E-score. Entry: TGTGTTAA 0.471

What value of PBM E-score has been recorded for this entry: AGGGTAAA 0.0323

Please report the recorded PBM E-score for CACACGAC . 0.223

What does the data say about its PBM E-score? Entry: AACATAAA 0.28

I'd like to know its PBM E-score. The sequence in question is TGAAGGAA -0.0399

For the sequence ATCAAGTG , what PBM E-score is on record? -0.0416

I have this sequence here, AACACAAA , and I need its recorded PBM E-score. 0.261

Any idea what its PBM E-score is? The sequence is CATGTTTA 0.437

Recorded PBM E-score of GGTTTAGA , please. -0.168

Find the recorded PBM E-score belonging to CAGACACA and report it. 0.035

Fill in the blank: the reported PBM E-score of AGATCCTA is ____. -0.165

So what's the measured PBM E-score for this one? CGCCAGAG -0.305

Request the reported PBM E-score associated with TGTTTAAA 0.34

What value of PBM E-score has been recorded for this entry: GATGTTTA 0.223

----------
Reported PBM E-score by item:
Target: Hmlalpha2 (UniProt P0CY09)
Sequence: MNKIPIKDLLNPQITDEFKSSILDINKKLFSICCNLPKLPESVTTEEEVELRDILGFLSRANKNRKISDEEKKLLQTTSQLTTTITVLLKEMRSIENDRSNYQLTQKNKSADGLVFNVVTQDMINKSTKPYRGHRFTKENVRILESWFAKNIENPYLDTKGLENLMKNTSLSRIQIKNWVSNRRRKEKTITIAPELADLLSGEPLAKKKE
Assay: PBM E-score (8-mer binding enrichment) (E-score (-0.5 to 0.5)); higher = stronger / more preferred TF binding
Settings: protein concentration: 200 nM; construct: GST-full length
Over roughly 33,000 sequences, “E-score (-0.5 to 0.5)” has its median near -0.04; the highest 2% begin near 0.36. The list comes from a sample in which the highest values are over-represented; it also holds close analogues and randomly drawn sequences.

Some sequences with known PBM E-score results, for comparison:
CCTATGAA : -0.065
ACATGCAC : 0.36
AATGATAT : 0.0696
ACTATGTG : 0.108
GCTATGTA : 0.426
AGTTCTCA : 0.0389

Fill blank: measured PBM E-score of the sequence AGACACGG is ____. 0.228

What does the record list as PBM E-score for ACTATGTA ? 0.444

Any idea what its PBM E-score is? The sequence is ATCTCCTG -0.0358

I'd like to know its PBM E-score. The sequence in question is ACTATGTC 0.165

# get_value(readout='PBM E-score', item= AGCATAGC ) 0.0169

I'd like to know its PBM E-score. The sequence in question is AAGAGATG -0.0147

Given ACTCTACT , state its recorded PBM E-score. 0.0373

# input sequence: ACATGCCA ; wanted: its PBM E-score 0.397

Bench note: what PBM E-score did GAGACGAC show? -0.19

Which PBM E-score is reported for this sequence? AATATGTC 0.167

Which measured PBM E-score value corresponds to CCTATGTA ? 0.433

May I ask what PBM E-score has been recorded for ACCAAAGG ? -0.219

# input sequence: CCTATGTC ; wanted: its PBM E-score 0.0957

So what does the record say about PBM E-score for CCATGCTC ? -0.13

Quick one: PBM E-score for AATATGTA ? 0.386

State the recorded PBM E-score for this entry: TCATGCAA 0.107

----------
Molecular target: Hmlalpha2 (UniProt P0CY09)
Sequence: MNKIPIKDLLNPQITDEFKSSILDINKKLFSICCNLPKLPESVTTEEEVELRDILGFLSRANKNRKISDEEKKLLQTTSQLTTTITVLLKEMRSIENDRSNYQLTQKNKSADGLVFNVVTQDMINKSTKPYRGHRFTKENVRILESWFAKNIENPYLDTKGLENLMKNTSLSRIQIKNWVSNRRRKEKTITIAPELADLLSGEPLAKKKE
Assay: PBM E-score (8-mer binding enrichment) (E-score (-0.5 to 0.5)); higher = stronger / more preferred TF binding
Conditions: protein concentration: 200 nM; construct: GST-full length
Over roughly 33,000 sequences, “E-score (-0.5 to 0.5)” has its median near -0.04; the highest 2% begin near 0.36. The full list was thinned out, with the highest values kept by preference.
PBM E-score reference
Give the figure only, with no unit attached.

Observe how each entry below is paired with its result.
ATCCTAAT : -0.0163
AACACTAT : 0.231
CAACACGA : 0.419
CCATTGCG : -0.262
AACACAAT : 0.373

Please look up its PBM E-score: GAACACGA 0.287

# PBM E-score lookup, item GACACAAC 0.264

Bench note: what PBM E-score did CACACAGC show? 0.201

Give its PBM E-score value. Item: CACACGTA 0.271

Entry ACCACGTA : reported PBM E-score = ? 0.254
